- Test system: OVCAR-4 ovarian
- assay_notes: NCI-60 one-dose screen, 48 h (100 = growth as untreated, 0 = no growth, -100 = all killed)
- condition_details: 10 µM
Compounds without any hit were thinned out: in the full panel of roughly 83,000, 20% have a hit.
Can you tell me growth for the items I'm about to list?
Give your result in % as a bare value.

Task: Name the reported growth value associated with the compound COc1cc2c(cc1OC)N(CCO)C1=C(C(=O)OC1)C2c1ccc(Cl)c(Cl)c1 (stereo not drawn)
Result: 104

Task: // repeat for `C/C(N)=C(\C#N)C(=O)c1ccccc1` and report
Result: 104

Task: // repeat for COc1ccc2c(c1)N(CCO)C1=C(C(=O)OC1)C2c1ccccc1 (stereo not drawn) and report
Result: 69.5

Task: Also `COc1cccc(C(=O)Nc2ccc(CN3CCc4nc5cc(OC)c(OC)cc5cc43)cc2)c1` , if possible.
Result: 57.1

Task: Another compound to look at: `Nc1nc(-c2ccccc2Cl)cc(-c2ccc(Cl)cc2Cl)n1`
Result: 79.6

Task: Please answer likewise for `CS(=O)(=O)Nc1cccc(-c2cc(-c3ccccc3Cl)c(C#N)c(N)n2)c1`
Result: 47.1

Task: Request: `CC(=O)OCc1cc(-c2nc3ccccc3[nH]c2=O)nn1-c1ccc(Cl)cc1`
Result: 96.1

Task: Subsequent entry: `FC(F)(F)c1ccc(-c2cnc(-n3cc(COCCN4CCCCC4)nn3)nc2NC2CCCCCC2)cc1`
Result: 39.9

Task: # repeat for `O=S(=O)(NCCCNc1nccc(-c2c(-c3ccc(F)cc3)nc3sccn23)n1)c1ccc2ccccc2c1`
Result: 56.8

Task: Next entry: `CSc1nc(=O)n(Cc2ccc(Cl)cc2)c(=O)[nH]1`
Result: 110

Task: Same lookup for `COc1cc(-c2nc(-c3nnc(-c4ccc(F)c(Cl)c4)o3)c3ccccn23)cc(OC)c1OC` , please.
Result: -40.4

Task: Follow-up item: `COc1ccc(-c2nc(-c3nc4cc(Cl)c(F)cc4[nH]3)c3ccccn23)cc1`
Result: 57.6

Task: Try this compound too: `COc1cc(/C(=C2/O[C@@H]([C@H]3COC(C)(C)O3)[C@H]3OC(C)(C)O[C@@H]23)c2ccc3ccccc3c2)cc(OC)c1OC`
Result: 25.7

Task: Moving on to the next compound: CCCCC(CCCCCC(CCCC)NCc1ccc2c(c1)OCO2)NCc1ccc2c(c1)OCO2 (stereo not drawn)
Result: -98.9

Task: Further, for `CC1(C)CCC(=NNC(N)=S)CC1` ?
Result: 112

Task: Now the compound `CC(C)=CCc1ccc(O)c(=O)cc1C(C)C`
Result: 31.2

Task: And `O=S(=O)(NCCCNc1nccc(-c2c(-c3ccc(F)cc3)nc3sccn23)n1)c1ccc(F)cc1` ?
Result: 57.5

Task: Same thing, different compound: C=C(C(=O)c1ccccc1)C(NC(C)(C)C)c1ccccc1 (stereo not drawn)
Result: -13.1

Task: Also, `N=C(N)c1ccc(-c2ccc(-c3cccs3)s2)cc1` please.
Result: -19.8

Task: Thanks! And `COc1cc2nc(Nc3cccc(NC(C)=O)c3)nc(N)c2cc1OC` ?
Result: 107

Task: // query: `N#CCCN1C/C(=C/c2ccc(Cl)cc2)C(=O)/C(=C/c2ccc(Cl)cc2)C1`
Result: 8.18

Task: Do the same for `COc1ccc(/C=C2/CN(C(=O)c3ccccc3F)C/C(=C\c3ccc(OC)cc3)C2=O)cc1` please
Result: 61.3

Task: Then `O=c1[nH]c(-c2ccc(Cl)cc2)nc2sc3c(c12)CCCC3` ?
Result: 86.2
